measurementTarget: mu opioid receptor (CHO-hMOR cell membranes) (Homo sapiens)
Construct: purchased Receptor Biology, Inc. (Baltimore, Md.); host or cells: CHO cells (recombinant expression)
methodDescription: Mu Opioid Receptor Functional Assay: [35S]GTPγS Binding in CHO-hMOR Cell Membranes, Versions 1 and 2
Assay type: biochemical
conditionContext: version 1, % inhibition of agonist-stimulated GTPγS binding
In this section we review reported MOR GTP binding assay_v1 (% I) values for a set of compounds.

# compound, MOR GTP binding assay_v1 (% I)
records = [
    ("C[C@@H](c1nc(-c2ccccc2)c[nH]1)N(Cc1ccccc1)C(=O)[C@@H](N)Cc1ccc(O)cc1 [Cpd 219]", "1.00%"),
    ("Cc1cc(C(N)=O)cc(C)c1C[C@H](N)C(=O)N(Cc1nc(-c2ccccc2)c[nH]1)C(C)C [Cpd 178]", "10.00%"),
    ("Cc1cc(O)cc(C)c1C[C@H](N)C(=O)N(C)[C@H](C)c1nc(-c2ccccc2)c[nH]1 [Cpd 206]", "1.00%"),
    ("Cc1cc(O)cc(C)c1C[C@H](N)C(=O)N(C(C)C)[C@@H](Cc1cccc(C#N)c1)c1nc(-c2ccccc2)c[nH]1 [Cpd 122]", "41.93%"),
    ("Cc1cc(O)cc(C)c1C[C@H](N)C(=O)N[C@@H](Cc1cccc(C#N)c1)c1nc(-c2ccccc2)c[nH]1 [Cpd 173]", "85.00%"),
    ("Cc1cc(O)cc(C)c1C[C@H](N)C(=O)N(Cc1nc(-c2ccc3ccccc3c2)c(C)[nH]1)C(C)C [Cpd 150]", "53.35%"),
    ("Cc1cc(O)cc(C)c1C[C@H](N)C(=O)N(Cc1nc(-c2ccccc2Cl)c(C)[nH]1)C(C)C [Cpd 155]", "14.32%"),
]

====

measurementTarget: human mu opioid receptor (Homo sapiens)
Construct: purchased Perkin Elmer RBHOMM400UA; host or cells: Chinese Hamster Ovary cells (recombinant expression)
Sequence (P35372 whole entry): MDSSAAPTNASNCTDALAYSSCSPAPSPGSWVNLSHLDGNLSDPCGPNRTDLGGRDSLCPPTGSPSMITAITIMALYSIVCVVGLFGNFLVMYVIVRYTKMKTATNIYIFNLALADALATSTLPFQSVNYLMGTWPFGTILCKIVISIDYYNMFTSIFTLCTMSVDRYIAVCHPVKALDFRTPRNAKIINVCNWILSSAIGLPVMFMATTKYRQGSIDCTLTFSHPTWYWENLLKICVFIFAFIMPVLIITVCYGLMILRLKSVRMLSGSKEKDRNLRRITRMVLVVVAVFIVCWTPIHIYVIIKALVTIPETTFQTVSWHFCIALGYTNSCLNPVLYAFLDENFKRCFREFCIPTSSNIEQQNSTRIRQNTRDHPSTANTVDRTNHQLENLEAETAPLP
methodDescription: Human Mu Opioid Receptor Binding Assay (CHO membranes, 3H-Damgo)
conditionContext: read-out: hKi μ
Method: Membranes from Chinese Hamster Ovary cells expressing the human […] opioid receptor (Perkin Elmer #RBHOMM400UA) are homogenized in assay buffer (50 mM Tris, pH 7.5 with 5 mM MgCl2) using a glass tissue grinder, Teflon pestle and a Steadfast Stirrer (Fisher Scientific). […] Nonspecific binding is determined in the presence of 1 μM unlabelled Damgo (Tocris #1171).
experimentalReadout: log10 Ki (log10 of the value in nM)

# structureNotation, experimentalReadout, quantitativeReadout
measured = [
    ("Cc1cc(C(N)=O)cc(C)c1C[C@H](N)C(=O)N(Cc1ccccc1)[C@@H](C)c1nc(-c2ccc(F)cc2)c[nH]1", "log10 Ki", 0.20),
    ("Cc1cc(O)cc(C)c1C[C@H](N)C(=O)N(CC1CCCCC1)[C@@H](C)c1nc(-c2ccccc2)c[nH]1", "log10 Ki", 1.81),
    ("COc1ccc(CN(Cc2nc(-c3ccccc3)c[nH]2)C(=O)[C@@H](N)Cc2c(C)cc(C(N)=O)cc2C)cc1C(=O)O", "log10 Ki", 0.30),
    ("C[C@H](c1nc(-c2ccccc2)c[nH]1)N(Cc1ccccc1)C(=O)[C@@H](N)Cc1ccc(O)cc1", "log10 Ki", -0.38),
    ("Cc1cc(O)cc(C)c1C[C@H](N)C(=O)N(Cc1ccccc1)[C@@H](Cc1ccccc1)c1nc(-c2ccccc2)c[nH]1", "log10 Ki", 2.61),
    ("COc1ccc(CN(C(=O)[C@@H](N)Cc2c(C)cc(O)cc2C)[C@@H](COCc2ccccc2)c2nc(-c3ccccc3)c[nH]2)cc1OC", "log10 Ki", 1.58),
    ("Cc1cc(O)cc(C)c1C[C@H](N)C(=O)N(Cc1nc(-c2cccc(C#N)c2)c(C)[nH]1)C(C)C", "log10 Ki", 0.30),
    ("Cc1cc(C(N)=O)cc(C)c1C[C@H](N)C(=O)N(Cc1ccccc1)Cc1nc(-c2ccccc2)c[nH]1", "log10 Ki", 0.47),
    ("Cc1cc(O)cc(C)c1C[C@H](N)C(=O)N(Cc1ccc(O)cc1)[C@@H](C)c1nc(-c2ccccc2)c[nH]1", "log10 Ki", 0.23),
    ("Cc1cc(O)cc(C)c1C[C@H](N)C(=O)N(Cc1ccc(N(C)C)cc1)[C@@H](C)c1nc(-c2ccccc2)cn1C", "log10 Ki", 0.26),
    ("COC(=O)c1cccc(CN(C(=O)[C@@H](N)Cc2c(C)cc(C(N)=O)cc2C)[C@@H](C)c2nc(-c3cccc4ccccc34)c[nH]2)c1", "log10 Ki", 1.19),
    ("C[C@@H](c1nc(-c2ccccc2)c[nH]1)N(Cc1ccccc1)C(=O)[C@@H](N)Cc1ccc(O)cc1", "log10 Ki", 1.21),
    ("COC(=O)c1cc(CN(C(=O)[C@@H](N)Cc2ccccc2)[C@@H](C)c2nc(-c3ccccc3)c[nH]2)ccc1OC", "log10 Ki", 1.84),
    ("Cc1cc(O)cc(C)c1C[C@H](N)C(=O)N(Cc1nc(-c2cccc(OC(F)(F)F)c2)c(C)[nH]1)C(C)C", "log10 Ki", 0.84),
    ("Cc1cc(O)cc(C)c1C[C@H](N)C(=O)N(Cc1nc(-c2ccc(CO)cc2)c(C)[nH]1)C(C)C", "log10 Ki", -0.05),
    ("COc1ccc(CN(C(=O)[C@@H](N)Cc2ccc(C(N)=O)cc2)[C@@H](C)c2nc(-c3ccccc3)c[nH]2)cc1C(=O)O", "log10 Ki", 0.74),
    ("Cc1cc(O)cc(C)c1C[C@H](N)C(=O)N(Cc1cccc(C#N)c1)[C@@H](C)c1nc(-c2ccccc2)c[nH]1", "log10 Ki", 0.68),
    ("Cc1cc(O)cc(C)c1C[C@H](N)C(=O)N(C(C)C)[C@@H](Cc1cccc(C#N)c1)c1nc(-c2ccccc2)c[nH]1", "log10 Ki", 1.11),
    ("Cc1cc(O)cc(C)c1C[C@H](N)C(=O)N(Cc1cccc(C(=O)O)c1)[C@@H](C)c1nc(-c2ccccc2)c[nH]1", "log10 Ki", -0.40),
    ("Cc1cc(O)cc(C)c1C[C@H](N)C(=O)N(Cc1nc(-c2cc(C(F)(F)F)cc(C(F)(F)F)c2)c(C)[nH]1)C(C)C", "log10 Ki", 1.21),
    ("CC(=O)Nc1ccc(CN(C(=O)[C@@H](N)Cc2c(C)cc(O)cc2C)[C@@H](C)c2nc(-c3ccccc3)c[nH]2)cc1", "log10 Ki", 0.23),
    ("COC(=O)c1cccc(CN(C(=O)[C@@H](N)Cc2c(C)cc(O)cc2C)[C@@H](C)c2nc(-c3ccccc3)c[nH]2)c1", "log10 Ki", 1.08),
    ("Cc1cc(O)cc(C)c1C[C@H](N)C(=O)N(Cc1nc(-c2cc(F)cc(F)c2)c(C)[nH]1)C(C)C", "log10 Ki", 0.89),
    ("Cc1cc(C(N)=O)cc(C)c1C[C@H](N)C(=O)N(Cc1ccccc1)[C@H](C)c1nc(-c2ccccc2)c[nH]1", "log10 Ki", 1.20),
    ("COc1ccc(-c2nc(CN(C(=O)[C@@H](N)Cc3c(C)cc(O)cc3C)C(C)C)[nH]c2C)cc1", "log10 Ki", 0.93),
    ("CC(C)N(C(=O)[C@@H](N)Cc1ccc(O)cc1)[C@@H](C)c1nc(-c2ccccc2)c[nH]1", "log10 Ki", 0.15),
    ("COC(=O)c1cc(CN(C(=O)[C@@H](N)Cc2c(C)cc(O)cc2C)[C@@H](C)c2nc(-c3ccccc3)c[nH]2)ccc1OC", "log10 Ki", 0.76),
]

Entry source: patent US10213415B2
